Quick list: kon per entry.
- target-or-test-system: T1, SARS-CoV2 Spike ecto foldon Trimer expressed with a C-terminal myc-myc-hexahistidine (SARS-CoV-2, UniProt P0DTC2 14-1213)
- T1 construct: extracellular domain
- experimental-protocol: SPR Biacore, mAb captured by anti-hFc, 37C
Note: unit M⁻¹ s⁻¹ is implicit; provide only the numeric part.

Examples with their reported kon follow.
mAb14257 (antibody, V domains shown) VH: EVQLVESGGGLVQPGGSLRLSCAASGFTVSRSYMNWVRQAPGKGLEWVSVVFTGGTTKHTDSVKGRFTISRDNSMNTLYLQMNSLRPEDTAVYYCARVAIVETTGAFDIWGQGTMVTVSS VL: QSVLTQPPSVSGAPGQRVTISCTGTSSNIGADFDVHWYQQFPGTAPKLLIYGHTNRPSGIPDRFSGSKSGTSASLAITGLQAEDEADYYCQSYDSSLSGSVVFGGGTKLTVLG | 1.17e+06
mAb14232 (antibody, V domains shown) VH: QITLKESGPTLVKPTQTLTLTCTFSGFSLSASGVGVGWIRQPPGKALEWLALIYWDDDKRYSPSLKSRLTITKDTSKNQVVLTMTNMDPVDTATYYCAQHKVATIFDYWGQGTLVTVSS VL: QSALTQPPSASGSPGQSVTISCTATSSDVGNYNYVSWYQQHPGKAPKLMIYEVTKRPSGVPDRFSGSKSGNTASLTVSGLQAEDEADYYCSSYAGSWGVFGGGTKLTVLG | 751000
mAb14312 (antibody, V domains shown) VH: EVQLVESGGGLVQPGGSLRLSCAASGFTVSRSYMTWVRQAPGKGLEWVSVIFTGGRTDHADSVKGRFTISRHNSKNTLYLQMNSLRTEDTAVYYCARVAIVGATGAFDIWGQGTMVTVSS VL: QSVLTQPPSVSGAPGQRVTISCTGSSSNIGAGDDVHWYQQLPGTAPKLLIYGNSNRPSGVPDRFSGSKSGTSASLAITGLQAEDEADYYCQSYDSSLSGSVVFGGGTKLTVLG | 966000
mAb14284 (antibody, V domains shown) VH: QITLKESGPTLVKPTQTLTLTCTFSGFSFSTSGVGVGWIRQPPGKTLEWLALIYWDDDKRYSPSLKSRLTITKDTSKNQVVLTMTNMDPVDTATYFCAHHGIPTIFGYWGQGALVTVSS VL: QSALTQPASVSGSPGQSITISCTGTSSDLGVFNYVSWYQQHPGKAPKLMIYEVTNRPSGVSNRFSGSKSGNTASLTISGLQAEDEADYYCSSYTTSSTVFGGGTKLTVLG | 814000

Would you kindly look at the next entry?
kon lookup needed for mAb15163 (antibody, V domains shown) VH: EVQLVETGGGLIQPGESLRLSCAASGFIVSTNYMNWVRQAPGKGLEWVSVIYRGGSTYYADSVKGRFTISRDNSKNTLFLQMNSLRAEDTAVYYCARGHEDFDYDTPASGAFDIWGQGTMVTVSS VL: QSALTQPPSASGSPGQSVTISCTGTSSDVGGHNYVSWYQQHPGKAPKVMIYEVSKRPSGVPDRFSGSKSGNTASLTVSGLQAEDEADYYCSSYAGSNKFVFGTGTKVTVLG , thanks.
1.35e+06
